# ASSAY NAME: Dissolution test (paddle apparatus, Ph. Eur. 2.9.3), release of active ingredient
# Type: physicochemical
# CONDITIONS: time 6 hour
# Method: Dissolution Test Operating Conditions for Dissolution Paddle dissolution apparatus described in the European pharmacopoeia (2.9.3) Dissolution medium: 0.01 N hydrochloric acid (pH˜2.1) degassed Temperature of the medium: 37° C.±0.5° C. […]
ASSAY METRIC: Derivative (of % of active ingredient released over time) (%/min)
Numbers only, in %/min.

Inquiry: Reported Derivative (of % of active ingredient released over time), molecule COc1cc2c(cc1OC)CC(=O)N(CCCN(C)C[C@H]1Cc3cc(OC)c(OC)cc31)CC2 [ivabradine hemipamoate] : ____
Reply text: 0.15
